Reference source for all entries: patent US6780996B2

Reported melting point values for a set of compounds

Below are worked cases with known answers.
# substanceSmiles, melting point
data = [
    ("CCOc1cc2c(Nc3cc(OC)c(Cl)cc3Cl)c(C#N)cnc2cc1OCCOC", "215 to 217 °C"),
    ("COc1cc(Nc2c(C#N)cnc3cc(OCCCN4CCS(=O)(=O)CC4)c(OC)cc23)c(Cl)cc1Cl", "118 to 120 °C"),
    ("COc1cc(Nc2c(C#N)cnc3cc(Sc4ccccc4)c(OC)cc23)c(Cl)cc1Cl", "220 to 222 °C"),
    ("COc1cc2c(Nc3ccc(C)cc3C)c(C#N)cnc2cc1OCCCC1CCN(C)CC1", "159 to 162 °C"),
    ("COCCOc1cc2ncc(C#N)c(Nc3ccc(C)cc3C)c2cc1OC", "107 to 109 °C"),
]

Identify measured melting point corresponding to `COc1cc(Nc2c(C#N)cnc3cc(OCC4CCNCC4)c(OC)cc23)c(Cl)cc1Cl`
134 to 138 °C

Identify measured melting point corresponding to `COc1ccc(C)c(Nc2c(C#N)cnc3cc(OCCCC4CCN(C)CC4)c(OC)cc23)c1`
163 to 166 °C

Identify measured melting point corresponding to `CCN1CCC(COc2cc3ncc(C#N)c(Nc4cc(OC)c(Cl)cc4Cl)c3cc2OC)CC1`
192 to 195 °C
